// reported MIC per item
System: Staphylococcus aureus Terajima
test_protocol: Antibacterial activity, agar-dilution MIC, organism No. 2
Type: cell-based
conditions: Staphylococcus aureus; Organism No. 2, bouillon-agar; read-out: Minimum Inhibitory Concentration
Report as a plain number; the unit µg/mL is understood.

Consider the reported MIC for these molecules:
| molecule | units_of_measure | MIC |
| --- | --- | --- |
| [C-]#[N+]C12CC3(/C=C/C(=O)ON4C(=O)CCC4=O)OC3C1O2 (centres unmarked) [Compound No. 9] | µg/mL | 50 |
| [C-]#[N+]C12CC3(/C=C/C(=O)Nc4nnc(C)s4)OC3C1O2 (centres unmarked) [compound 71] | µg/mL | 12.5 |
| [C-]#[N+]C12CC3(/C=C/C(=O)NC4C(=O)N5C4SC(C)(C)C5C(=O)OCC(=O)c4ccc(Br)cc4)OC3C1O2 (centres unmarked) [Compound No. 33] | µg/mL | 0.78 |

Entry [C-]#[N+]C12CC3(/C=C/C(=O)NCc4ccccc4)OC3C1O2 (centres unmarked) [Compound No. 24] , system Staphylococcus aureus Terajima: what MIC was measured? 1.56

Entry [C-]#[N+]C12CC3(/C=C/C(=O)NC4CCCCC4)OC3C1O2 (centres unmarked) [compound 20] , system Staphylococcus aureus Terajima: what MIC was measured? 12.5

Entry [C-]#[N+]C12CC3(/C=C/C(=O)Nc4ccc5c(c4)OCO5)OC3C1O2 (centres unmarked) [compound 64] , system Staphylococcus aureus Terajima: what MIC was measured? 0.78

---

// reported MIC per item
Tested on: Enterobacter cloacae 963
test_protocol: Antibacterial activity, agar-dilution MIC, organism No. 24
Assay type: cell-based
conditions: Enterobacter cloacae, 963; Organism No. 24, bouillon-agar; read-out: Minimum Inhibitory Concentration

Consider the reported MIC for these compounds:
| compound | target_system | MIC |
| --- | --- | --- |
| [C-]#[N+]C12CC3(/C=C/C(=O)N[C@@H](CCC(=O)OC)C(=O)OC)OC3C1O2 (some centres unmarked) | Enterobacter cloacae 963 | > 200 µg/mL |
| [C-]#[N+]C12CC3(/C=C/C(=O)Nc4ccc(S(N)(=O)=O)cc4)OC3C1O2 (centres unmarked) | Enterobacter cloacae 963 | > 200 µg/mL |
| [C-]#[N+]C12CC3(/C=C/C(=O)O)OC3C1O2 (stereo not drawn) [α substituted acrylic acid, reference compound] | Enterobacter cloacae 963 | 100 µg/mL |
| [C-]#[N+]C12CC3(/C=C/C(=O)Nc4ccc(C(F)(F)F)cc4)OC3C1O2 (centres unmarked) | Enterobacter cloacae 963 | > 200 µg/mL |
| [C-]#[N+]C12CC3(/C=C/C(=O)ON4C(=O)CCC4=O)OC3C1O2 (centres unmarked) | Enterobacter cloacae 963 | > 200 µg/mL |
| [C-]#[N+]C12CC3(/C=C/C(=O)Nc4nc5ccccc5s4)OC3C1O2 (centres unmarked) | Enterobacter cloacae 963 | > 200 µg/mL |
| [C-]#[N+]C12CC3(/C=C/C(=O)Nc4nnc(C)s4)OC3C1O2 (centres unmarked) | Enterobacter cloacae 963 | > 200 µg/mL |

Alright, here's another compound for you.
Entry [C-]#[N+]C12CC3(/C=C/C(=O)Nc4ccccc4C)OC3C1O2 (centres unmarked) , system Enterobacter cloacae 963: what MIC was measured? 200 µg/mL
